Attribution: the supplement of paper PMC10065799

# TARGET_UNDER_TEST: MERTK (UniProt Q12866)
# Sequence (Q12866 whole entry, looked up): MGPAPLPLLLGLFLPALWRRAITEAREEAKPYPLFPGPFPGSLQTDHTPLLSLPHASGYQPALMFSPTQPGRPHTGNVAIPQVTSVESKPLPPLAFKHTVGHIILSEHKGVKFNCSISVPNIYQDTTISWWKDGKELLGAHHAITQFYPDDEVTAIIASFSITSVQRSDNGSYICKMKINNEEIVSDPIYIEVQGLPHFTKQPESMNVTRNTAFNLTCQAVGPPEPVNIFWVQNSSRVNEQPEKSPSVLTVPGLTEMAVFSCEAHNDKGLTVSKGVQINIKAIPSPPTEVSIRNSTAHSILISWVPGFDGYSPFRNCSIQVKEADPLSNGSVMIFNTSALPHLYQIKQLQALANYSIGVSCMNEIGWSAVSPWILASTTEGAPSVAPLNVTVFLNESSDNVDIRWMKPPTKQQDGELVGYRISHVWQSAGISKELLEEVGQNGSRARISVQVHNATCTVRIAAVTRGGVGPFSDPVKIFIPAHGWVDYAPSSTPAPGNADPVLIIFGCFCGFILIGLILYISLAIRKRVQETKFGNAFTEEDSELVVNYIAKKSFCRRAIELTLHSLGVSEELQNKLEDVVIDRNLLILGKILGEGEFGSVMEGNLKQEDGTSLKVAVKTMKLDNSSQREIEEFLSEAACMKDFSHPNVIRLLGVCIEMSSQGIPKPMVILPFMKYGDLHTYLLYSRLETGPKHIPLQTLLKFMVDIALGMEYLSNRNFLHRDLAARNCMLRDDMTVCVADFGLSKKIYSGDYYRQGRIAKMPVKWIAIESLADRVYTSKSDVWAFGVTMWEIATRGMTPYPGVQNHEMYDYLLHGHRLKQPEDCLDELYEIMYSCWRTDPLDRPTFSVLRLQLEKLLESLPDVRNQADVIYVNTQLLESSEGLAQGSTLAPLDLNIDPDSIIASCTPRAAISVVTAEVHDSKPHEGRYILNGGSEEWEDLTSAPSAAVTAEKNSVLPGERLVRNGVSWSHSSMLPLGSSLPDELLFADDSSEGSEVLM
# METHOD: phosphorylation enrichment, bacterial display (enrichment ratio); higher = better substrate or ligand; peptides without Tyr show the background;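 note: 11-residue human phosphosite peptides and single-mutation variants displayed on the E. coli surface, counted by deep sequencing, each peptide's frequency after selection divided by its frequency in the unselected input library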;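 note: frequency after pTyr selection over input frequency; kinase dosed for 20-30% of maximal phosphorylation in three min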
Entries annotated with measured phosphorylation enrichment
Provide a numeric answer; units are not to be included.

Answered examples (5):
ATRDVYNPFET [SCAMP3_Y41_L38R] : 0.485
VATRWYRSPEL [CDKL5_Y177] : 0.459
YPSLPYSPVSS [CAMKK2_Y128_C123Y] : 0.514
EFLKNYFTDKA [DSG2_Y775_R773K] : 0.531
IITDYYVDMKF [MPP4_Y567_V562I] : 1.22

Find the recorded phosphorylation enrichment belonging to PTYKHYANSTQ [SLC12A3_Y70_E68K] and report it.
0.442

Same for ITLPIYTKESE [ANK2_Y1455]
1.75

Same for QPGDIYHQTWA [GBA_Y244]
2.84

Same for ITNVLYHVVGW [GBA_Y412_L410V]
6.81

Same for RMGNLYDIDEN [GRIN2A_Y1246_D1251N]
1.03

Same for QNTGDDYDLYG [PTPN11_Y62_Y62D]
0.697

Same for RFLRGYRQHAY [HLA-A_Y137_D140H]
1.33

Same for QNTGDYCDLFG [PTPN11_Y62_Y63C_YF]
0.806

Same for IVFTSYFLTIL [TAS2R16_Y239]
0.476

Same for IFHLSYHHNCE [PDE6B_Y227_L228H_YF]
0.381

Same for LNPFIYSLRNC [OR1A2_Y288_W293C]
1.04

Same for LWEGSYGKVKE [STK11_Y60_G56W]
0.509

Same for RGSQQYRALTV [TUBB8_Y281]
0.516

Same for SDYSSYARTSI [TERT_Y949]
0.52

Same for EDASEYFENYI [PARP4_Y214]
0.527

Same for DSMQSYDLDFP [UNC13B_Y243_YF]
0.453

Same for LHQSTYQRFDV [SLC7A14_Y693_YF]
1.19

Same for EDSEFYRAFEE [CASQ2_Y179_K180R_YF]
0.449
